system: OVTOKO (Ovarian Carcinoma); test: Bliss excess, mean over the matrix (fraction); higher = more synergy;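 note: after 72 h of two-drug dosing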
Entry flag: yes (1) if Bliss excess reaches -0.04; no (0) if it does not.

# compound, label
data = [
    ("CCN(CCO)CCCOc1ccc2c(Nc3cc(CC(=O)Nc4cccc(F)c4)[nH]n3)ncnc2c1 [AZD2811] + C=CCn1c(=O)c2cnc(Nc3ccc(N4CCN(C)CC4)cc3)nc2n1-c1cccc(C(C)(C)O)n1 [AZD1775] (first compound max 1 µM, partner max 1 µM)", "yes (1)"),
    ("NC1(C(=O)N[C@@H](CCO)c2ccc(Cl)cc2)CCN(c2ncnc3[nH]ccc23)CC1 [Capivasertib] + COc1nnc2ccc(N3CCC(c4ccc(OCCN5CCN(C)C(=O)[C@H]5C)cc4)CC3)nn12 [AZD5153] (first compound max 10 µM, 7x7, partner max 1 µM)", "yes (1)"),
    ("Cc1cc2ncnn2cc1Nc1ncc2c(n1)n(C1CCOCC1)c(=O)n2C [AZD7648] + CCN(CCO)CCCOc1ccc2c(Nc3cc(CC(=O)Nc4cccc(F)c4)[nH]n3)ncnc2c1 [AZD2811] (first compound max 10 µM, 7x7, partner max 1 µM)", "yes (1)"),
    ("NC1(C(=O)N[C@@H](CCO)c2ccc(Cl)cc2)CCN(c2ncnc3[nH]ccc23)CC1 [Capivasertib] + CC(=O)c1c(C)c2cnc(Nc3ccc(N4CCNCC4)cn3)nc2n(C2CCCC2)c1=O [Palbociclib] (first compound max 10 µM, 7x7, partner max 10 µM)", "no (0)"),
]

Kindly review the next compound as well.
Lookup: hey, is Bliss excess for this one >= -0.04? C[C@@H](c1ccc2nccn2c1)n1nnc2ncc(-c3cnn(C)c3)nc21 [Savolitinib] + CC1(C)CCC(CN2CCN(c3ccc(C(=O)NS(=O)(=O)c4ccc(NCC5CCOCC5)c([N+](=O)[O-])c4)c(Oc4cnc5[nH]ccc5c4)c3)CC2)=C(c2ccc(Cl)cc2)C1 [Venetoclax] (first compound max 1 µM, 7x7, partner max 1 µM)
Found: no (0)

src = the supplement of paper PMC11061612
